The values you see were collected from patent US20250066490A1.

Biological target: T1, CD70 ECD (Homo sapiens, UniProt P32970)
T1 sequence (P32970 39-193 limits assumed): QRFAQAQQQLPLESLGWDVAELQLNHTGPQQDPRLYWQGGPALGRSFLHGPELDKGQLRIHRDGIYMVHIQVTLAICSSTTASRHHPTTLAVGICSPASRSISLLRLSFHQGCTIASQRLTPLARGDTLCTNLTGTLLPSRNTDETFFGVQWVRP
Assay: Biacore affinity measurement on immobilized CD70 ECD
Format: binding
Settings: 25° C., CD70 immobilized
I'd appreciate it if you could supply Rmax (RU) values for the items below.
Report the figure in RU without appending any unit label.

Quick one: Rmax (RU) of 69A7: parent anti-CD70 antibody (U.S. Pat. No. 8,124,738B2), VH/VL SEQ ID NOs: 1 and 2 (antibody, V domains shown, Synthetic 69A7 VH amino acid sequence; Synthetic 69A7 VL amino acid sequence) VH: QVQLQESGPGLVKPSETLSLTCTVSGGSVSSDYYYWSWIRQPPGKGLEWLGYIYYSGSTNYNPSLKSRVTISVDTSKNQFSLKLRSVTTADTAVYYCARGDGDYGGNCFDYWGQGTLVTVSS VL: EIVLTQSPATLSLSPGERATLSCRASQSVSSYLAWYQQKPGQAPRLLIFDASNRATGIPARFSGSGSGTDFTLTISSLEPEDFAVYYCQQRSNWPLTFGGGTKVEIK ?
38.01

Rmax (RU) lookup needed for Vorsetuzumab (antibody, V domains shown, Synthetic h1F6 VH amino acid sequence; Synthetic h1F6 VL amino acid sequence) VH: QVQLVQSGAEVKKPGASVKVSCKASGYTFTNYGMNWVRQAPGQGLKWMGWINTYTGEPTYADAFKGRVTMTRDTSISTAYMELSRLRSDDTAVYYCARDYGDYGMDYWGQGTTVTVSS VL: DIVMTQSPDSLAVSLGERATINCRASKSVSTSGYSFMHWYQQKPGQPPKLLIYLASNLESGVPDRFSGSGSGTDFTLTISSLQAEDVAVYYCQHSREVPWTFGQGTKVEIK , thanks.
19.27

Which value of Rmax (RU) has been reported for 2E7: anti-CD70 antibody clone, VH SEQ 7 and VL SEQ 8; tested as scFv and full human IgG1/kappa (antibody, V domains shown, Synthetic 2E7 VH amino acid sequence; Synthetic 2E7 VL amino acid sequence, tested as scFv and full human IgG1/kappa) VH: QVQLQESGPGLVKPSETLSLTCTVSGGSVSSDYYYWSWIRQPPGKGLEWLGYIYYSGSTNYNPSLKSRVTISVDTSKNQFSLKLRSVTTADTAVYYCARGDGDFLGVCFDYWGQGTLVTVSS VL: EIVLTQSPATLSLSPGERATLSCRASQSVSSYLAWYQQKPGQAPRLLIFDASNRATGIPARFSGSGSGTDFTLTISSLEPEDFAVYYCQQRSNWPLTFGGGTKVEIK in the records?
32.94
